tested on: U251 CNS
Entry note: the call must match one of yes for active, no for inactive

Worked examples follow.
1) CCCCCCCCOc1ccc(/C=N/Nc2cc(C)nc3ccc(Cl)cc23)cc1 : no
2) Nc1c(C(=O)c2cccc(OCCN3CCOCC3)c2)cnn1-c1ccc(F)cc1 : no
3) N#C/C(=C/C=C(\Cl)c1ccc(Cl)cc1)C(N)=O : no
4) CC(CN)[C@@H]1CC[C@]2(CO)CC[C@]3(C)[C@H](CC[C@@H]4[C@@]5(C)CCC(NCCO)C(C)(C)[C@@H]5CC[C@]43C)[C@@H]12 (stereo partly specified) : no

Prompt: Please share the test call associated with "Nc1nc2ccc([C@@H]3Nc4ccc5[nH]ncc5c4[C@H]4[C@H]5CCC(C5)[C@H]43)cc2s1" .
Response: no

Prompt: Please share the test call associated with C/C=C(\C)C(=O)O[C@@H]1C(O)[C@H]2OC(COC(=O)CCC(=O)CCCCCC[C@H](CCCCC)O[C@@H]3OC(C)[C@H](OC(C)=O)C(O)[C@H]3O2)[C@H]1OC(=O)/C=C/c1ccccc1 (stereo partly specified) .
Response: yes
